Data provenance is paper PMC10397247.

Target: T1, 4H346-bN
T1 chain: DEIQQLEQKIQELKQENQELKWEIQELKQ
Assay: two-hybrid library CCNG1;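 note: natural log of median RNA to DNA barcode read ratio; higher means stronger binding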
Here the recorded interaction score is given for each entry.
Number only, no unit.

Incoming: Retrieve interaction score measured for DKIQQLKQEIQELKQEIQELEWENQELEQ [4H2627-bN] and print it.
Outgoing: -1.49
